Listing: GI50 of selected molecules
Tested on: SN12C
Test: NCI tumour cell line growth inhibition, 48 h
Activity calls are given as the source filed them. No stated cut-off is given here; in the data, active = GI50 up to about 1.1 µM and inactive = higher.

OCC1=C[C@@](COCc2ccccc2)(OCc2ccccc2)[C@@H](OCc2ccccc2)[C@@H]1OCc1ccccc1
2.86 µM (inactive)
O=c1[nH]c2nc(S)nc(S)c2[nH]1
> 100 µM (inactive)

GI50 for COC(=O)C#CCC1CCCC1C1SCCS1 (stereo not given) is 37.5 µM (inactive)

GI50 for O=C1CCC2(c3ccc(Cl)cc3)Nc3ncncc3N12 (stereo not given) is > 10 µM (inactive)

GI50 for COC(=O)[C@@]12C(=O)C=CC(=O)[C@@H]1C1C(=CC2COC(C)=O)O[C@@H]2OC3(CCCCC3)O[C@H]12 (stereo not given in full) is 15.5 µM (inactive)

GI50 for COc1ccc(-c2cc(O)c3cc4c(cc3n2)OCO4)c(OC)c1 is 59.6 µM (inactive)

GI50 for Cc1ccc(C2=NOC(=O)[C@@H]3CCCC[C@@H]23)cc1 is > 100 µM (inactive)

GI50 for COc1cc(/C=C/C(=O)CC(=O)/C=C/c2ccc(O)c(OC)c2)ccc1O [CURCUMIN] is 8.41 µM (inactive)

GI50 for O=[N+]([O-])/C(C(Cl)=C(Cl)Cl)=C(\NCc1ccccc1)Sc1ccccc1 is 35.2 µM (inactive)

GI50 for COc1ccc2c(-c3ccc(O)cc3)c(Oc3ccc(Cl)cc3)c(=O)oc2c1 is 4.6 µM (inactive)
